Origin of the recorded values: the CheMixHub drug solubility set

- assayMethodText: xn = mol fraction of the nth substance listed, in the solute-free solvent
- cond: 318.15 K; x2 = 0.3103
measurementKind: solubility (g/100 g solution)

Sample answers from the record:
O=c1cc(CBr)c2ccccc2[nH]1 + CCCO + O ... 0.218
O=c1cc(CBr)c2ccccc2[nH]1 + CC(C)O + O ... 0.18
CC(C)C(=O)Nc1ccc([N+](=O)[O-])c(C(F)(F)F)c1 + CC(C)O + O ... 11.7

A. Nc1ncc(Br)nc1Br + CC(C)O + O
B. O=C1C=CC(=O)N1c1ccccc1Br + CC(C)O + O
Ask: Field: entry with larger solubility (g/100 g solution) (options A / B ). Use the label to indicate which entry you chose.
Result: B
(B: 13.2, A: 0.449)

* * *

- assayMethodText: xn = mol fraction of the nth substance listed, in the solute-free solvent
- cond: 278.15 K; x2 = 0.7788
measurementKind: solubility (g/100 g solution)

Sample answers from the record:
O=C1C=CC(=O)N1c1ccccc1Br + CCO + O ... 5.65
CC(C)C(=O)Nc1ccc([N+](=O)[O-])c(C(F)(F)F)c1 + CCO + O ... 13.7
Nc1ncc(Br)nc1Br + CCO + O ... 0.4

I. O=c1cc(CBr)c2ccccc2[nH]1 + CCO + O
II. Nc1cc(-c2ccncc2)c[nH]c1=O + CCO + O
Ask: Kindly compare I with II and tell me which has the lower solubility (g/100 g solution) figure. Use the label to indicate which entry you chose.
Result: II

* * *

- assayMethodText: xn = mol fraction of the nth substance listed, in the solute-free solvent
- cond: 323.15 K; x2 = 0.3
measurementKind: solubility (g/100 g solution)
Please state the value as a number alone, without comment.

Sample answers from the record:
CC(C)C(=O)Nc1ccc([N+](=O)[O-])c(C(F)(F)F)c1 + C1CCOC1 + CC(C)O ... 66.8
CC(C)C(=O)Nc1ccc([N+](=O)[O-])c(C(F)(F)F)c1 + CCOC(C)=O + CC(C)O ... 61.5
Cl.NC1CCSC1=O (centres undefined) + CO + CC#N ... 1.46

Let's switch to this compound now.
Ask: Look up and report measured solubility (g/100 g solution) for this entry: CC(C)C(=O)Nc1ccc([N+](=O)[O-])c(C(F)(F)F)c1 + CC(C)=O + CC(C)O
Result: 64.6

* * *

- assayMethodText: xn = mol fraction of the nth substance listed, in the solute-free solvent
- cond: 298.15 K; x2 = 0.7297
measurementKind: solubility (g/100 g solution)

CC(C)C(=O)Nc1ccc([N+](=O)[O-])c(C(F)(F)F)c1 + CC(C)O + O ... 27.3
O=C1C=CC(=O)N1c1ccccc1Br + CC(C)O + O ... 7.83
O=c1cc(CBr)c2ccccc2[nH]1 + CCCO + O ... 0.151

A. O=c1cc(CBr)c2ccccc2[nH]1 + CC(C)O + O
B. Nc1ncc(Br)nc1Br + CC(C)O + O
Ask: Field: entry with larger solubility (g/100 g solution) (options A / B ). Use the label to indicate which entry you chose.
Result: B

* * *

- assayMethodText: xn = mol fraction of the nth substance listed, in the solute-free solvent
- cond: 288.15 K; x2 = 0.4117
measurementKind: solubility (g/100 g solution)

Sample answers from the record:
O=c1cc(CBr)c2ccccc2[nH]1 + CC(C)O + O ... 0.0833
Nc1ncc(Br)nc1Br + CC(C)O + O ... 0.233
CC(C)C(=O)Nc1ccc([N+](=O)[O-])c(C(F)(F)F)c1 + CC(C)O + O ... 9.52

P. O=c1cc(CBr)c2ccccc2[nH]1 + CCCO + O
Q. O=C1C=CC(=O)N1c1ccccc1Br + CC(C)O + O
Ask: Field: entry with larger solubility (g/100 g solution) (options P / Q ). Use the label to indicate which entry you chose.
Result: Q
